# ASSAYED SYSTEM: T1, recombinant mouse TfR2 (mouse, UniProt Q9JKX3 103-798, limits assumed)
# T1 construct: Negative control protein
# T1 sequence (looked up): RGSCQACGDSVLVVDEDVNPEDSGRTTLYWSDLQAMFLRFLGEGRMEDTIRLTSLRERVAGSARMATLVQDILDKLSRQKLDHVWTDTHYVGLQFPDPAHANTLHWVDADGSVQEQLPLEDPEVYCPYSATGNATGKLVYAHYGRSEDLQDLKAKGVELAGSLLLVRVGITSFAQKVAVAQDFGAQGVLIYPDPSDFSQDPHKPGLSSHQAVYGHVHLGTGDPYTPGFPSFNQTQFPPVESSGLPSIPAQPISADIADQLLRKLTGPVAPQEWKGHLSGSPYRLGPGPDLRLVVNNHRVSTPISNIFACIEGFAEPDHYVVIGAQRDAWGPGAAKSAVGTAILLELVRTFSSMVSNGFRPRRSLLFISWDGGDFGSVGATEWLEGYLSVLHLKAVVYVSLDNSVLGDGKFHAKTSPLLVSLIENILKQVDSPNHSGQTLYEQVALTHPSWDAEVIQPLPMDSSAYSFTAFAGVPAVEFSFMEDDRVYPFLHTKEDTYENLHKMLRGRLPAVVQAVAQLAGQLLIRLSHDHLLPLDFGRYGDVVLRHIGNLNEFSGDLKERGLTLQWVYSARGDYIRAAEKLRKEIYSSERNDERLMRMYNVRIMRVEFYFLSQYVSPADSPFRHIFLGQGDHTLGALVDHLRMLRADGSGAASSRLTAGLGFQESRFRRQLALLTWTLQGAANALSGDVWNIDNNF
# EXPERIMENT NOTES: ELISA with Expi293 culture medium used directly, coated mouse TfR2, anti-Fc detection
MEASURED PARAMETER: binding result

Clone 1 VNAR-Fc fusion protein (Fc fusion, Bivalent VNAR-Fc; also called clone 1-Fc; not shown: glycine/serine linker (GxSx)n extending the hinge; human IgG1 Fc (hinge, CH2, CH3) of pFUSE-hIgG1e3-Fc2; G236 also deleted) ARVDQTPQTITKETGESLTINCVLRDNNCALSTTYWYRKKSGSTNEENISKGGRYVETVNSGSKSFSLKINDLTVEDSGTYRCNVRDVQACGNDWVWLDVYGGGTVVTVNA; no binding
Clone 10 VNAR-Fc fusion protein (Fc fusion, Bivalent VNAR-Fc; also called clone 10-Fc; Clone 10-hFc; not shown: glycine/serine linker (GxSx)n extending the hinge; human IgG1 Fc (hinge, CH2, CH3) of pFUSE-hIgG1e3-Fc2; G236 also deleted) ARVDQTPQTITKETGESLTINCVLRDSNCALSSTYWYRKKSGSTNEENISKGGRYVETVNSGSKSFSLRINDLTVEDSGTYRCNVVQYPSYNNYFWCDVYGDGTAVTVNA; no binding
Clone 2 VNAR-Fc fusion protein (Fc fusion, Bivalent VNAR-Fc; not shown: glycine/serine linker (GxSx)n extending the hinge; human IgG1 Fc (hinge, CH2, CH3) of pFUSE-hIgG1e3-Fc2; G236 also deleted) ARVDQTPQTITKETGESLTINCVLRDNNCALSTTYWYRKKSGSTNEENISKGGRYVETVNSGSKSFSLKINDLTVEDSGTYRCNVFGVDNGWWCDVYGGGTVVTVNA; no binding
